We begin with a simple list: items and their reported IC50.
targetEntity: human CYP2C9 (Homo sapiens)
Sequence (P11712 whole entry): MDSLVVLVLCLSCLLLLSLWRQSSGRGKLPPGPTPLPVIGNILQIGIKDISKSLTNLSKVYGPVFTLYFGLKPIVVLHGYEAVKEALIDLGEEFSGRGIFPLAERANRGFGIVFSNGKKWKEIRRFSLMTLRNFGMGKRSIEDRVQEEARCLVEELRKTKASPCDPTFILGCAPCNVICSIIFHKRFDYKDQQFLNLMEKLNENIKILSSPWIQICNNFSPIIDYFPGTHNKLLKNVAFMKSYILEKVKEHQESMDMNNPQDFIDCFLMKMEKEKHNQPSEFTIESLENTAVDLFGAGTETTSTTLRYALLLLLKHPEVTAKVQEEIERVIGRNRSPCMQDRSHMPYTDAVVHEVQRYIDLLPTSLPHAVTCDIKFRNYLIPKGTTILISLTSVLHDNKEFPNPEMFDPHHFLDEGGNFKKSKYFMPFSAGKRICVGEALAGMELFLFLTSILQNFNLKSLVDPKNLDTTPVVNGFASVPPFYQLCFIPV
procedureText: biochemical
runConditions: CYP2C9 IC50 (half-maximal inhibitory concentration)
Where a name gives a salt, the structure may show the parent alone.
Don't forget the unit after the value.

Examples with answers:
>  <compound>
OC(Cn1cncn1)(c1ccc(F)cc1)c1ccccc1F (stereo not drawn)

>  <IC50>
0.77 µM

$$$$
>  <compound>
CCOc1cc(C(C)(C)C)ccc1C1COC(c2c(F)cccc2F)=N1 (stereo not drawn)

>  <IC50>
9.94 µM

$$$$

Give its IC50 value. Item: O=C1c2ccccc2C(=O)C1C(=O)C(c1ccccc1)c1ccc(Cl)cc1 (stereo not drawn) 0.76 µM

Give its IC50 value. Item: O=C(Nc1ccccc1)OCC(CN1CCCCC1)OC(=O)Nc1ccccc1 (stereo not drawn) [Diperodon hydrochloride] 20.8 µM

Give its IC50 value. Item: CCCc1nn(C)c2c(=O)[nH]c(-c3cc(S(=O)(=O)N4CCN(C)CC4)ccc3OCC)nc12 [Sildenafil citrate] 20.6 µM

Give its IC50 value. Item: COc1ccc(-c2ccccc2)cc1NNC(=O)OC(C)C [Bifenazate] 2.33 µM

---

We begin with a simple list: items and their reported IC50.
targetEntity: UniProt:P10635
Sequence (P10635 whole entry): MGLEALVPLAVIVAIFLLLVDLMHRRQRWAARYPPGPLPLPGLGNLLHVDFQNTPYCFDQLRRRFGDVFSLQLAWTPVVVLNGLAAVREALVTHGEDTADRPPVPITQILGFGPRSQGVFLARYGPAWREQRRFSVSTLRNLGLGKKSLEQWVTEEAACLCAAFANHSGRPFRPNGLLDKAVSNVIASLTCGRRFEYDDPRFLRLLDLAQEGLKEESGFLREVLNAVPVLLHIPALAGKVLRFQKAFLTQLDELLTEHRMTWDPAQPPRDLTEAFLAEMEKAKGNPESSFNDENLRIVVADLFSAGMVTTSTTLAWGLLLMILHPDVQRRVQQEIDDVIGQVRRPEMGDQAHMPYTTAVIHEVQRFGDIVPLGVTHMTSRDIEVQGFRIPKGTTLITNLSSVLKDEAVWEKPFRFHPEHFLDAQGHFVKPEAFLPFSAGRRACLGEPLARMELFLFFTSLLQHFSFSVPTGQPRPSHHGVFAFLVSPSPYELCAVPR
procedureText: biochemical
Kindly provide the numeric value in µM only, without the unit symbol.

Examples with answers:
>  <molecule>
CCCCCOc1ccccc1/C(=C\SC)n1ccnc1 [Neticonazole]

>  <targetEntity>
UniProt:P10635

>  <IC50, µM>
7.69

$$$$
>  <molecule>
CN(C)c1ccc(N=NS(=O)(=O)O)cc1 [Fenaminosulf]

>  <targetEntity>
UniProt:P10635

>  <IC50, µM>
12.2

$$$$
>  <molecule>
CC[C@@H]([C@H](C)O)n1ncn(-c2ccc(N3CCN(c4ccc(OC[C@@H]5CO[C@@](Cn6cncn6)(c6ccc(F)cc6F)C5)cc4)CC3)cc2)c1=O [Posaconazole]

>  <targetEntity>
UniProt:P10635

>  <IC50, µM>
11.3

$$$$
>  <molecule>
CCOC(=O)C(O)(c1ccc(Cl)cc1)c1ccc(Cl)cc1 [Chlorobenzilate]

>  <targetEntity>
UniProt:P10635

>  <IC50, µM>
46.2

$$$$
>  <molecule>
CCC1(c2cnc[nH]2)Cc2ccccc2C1 [Atipamezole]

>  <targetEntity>
UniProt:P10635

>  <IC50, µM>
0.87

$$$$
>  <molecule>
Clc1ccc(Nc2nnc(Cc3ccncc3)c3ccccc23)cc1 [Vatalanib]

>  <targetEntity>
UniProt:P10635

>  <IC50, µM>
5.98

$$$$

The record that follows has no IC50 shown yet.
Give its IC50 value. Item: CCOP(=S)(OCC)SCSc1ccc(Cl)cc1 [Carbophenothion] 13.2

---

targetEntity: UniProt P05177
Sequence (P05177 whole entry): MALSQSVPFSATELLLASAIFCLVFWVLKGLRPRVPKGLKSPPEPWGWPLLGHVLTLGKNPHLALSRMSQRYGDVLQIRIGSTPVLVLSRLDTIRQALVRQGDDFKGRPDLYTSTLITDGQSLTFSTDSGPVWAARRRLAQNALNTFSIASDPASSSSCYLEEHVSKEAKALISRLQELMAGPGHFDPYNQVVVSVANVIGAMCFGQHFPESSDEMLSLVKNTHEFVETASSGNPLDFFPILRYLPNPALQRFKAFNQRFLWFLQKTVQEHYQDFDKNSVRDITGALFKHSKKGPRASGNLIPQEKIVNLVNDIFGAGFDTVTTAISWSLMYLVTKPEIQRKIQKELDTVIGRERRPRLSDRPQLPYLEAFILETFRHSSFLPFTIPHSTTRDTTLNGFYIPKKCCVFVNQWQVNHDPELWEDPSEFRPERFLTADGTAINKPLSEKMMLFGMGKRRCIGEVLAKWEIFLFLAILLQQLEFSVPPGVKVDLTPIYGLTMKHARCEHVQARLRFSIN
procedureText: biochemical
runConditions: CYP1A2 AC50 (half-maximal activity concentration)
We begin with a simple list: items and their reported AC50.
Kindly provide the numeric value in µM only, without the unit symbol.

Examples with answers:
>  <molecule>
C[C@]12CC[C@@H]3c4ccc(O)cc4CC[C@H]3[C@@H]1CC[C@@H]2OC(=O)CCC1CCCC1 [Estradiol cypionate]

>  <AC50, µM>
16.6

$$$$
>  <molecule>
Clc1nc(Cl)c(Cl)c(Cl)c1Cl [Pentachloropyridine]

>  <AC50, µM>
41.8

$$$$
>  <molecule>
Oc1c(Cl)c(Cl)c(Cl)c(Cl)c1Cl [Sodium pentachlorophenate]

>  <AC50, µM>
73.9

$$$$
>  <molecule>
Oc1c(Cl)c(Cl)cc(Cl)c1Cl [2,3,5,6-Tetrachlorophenol]

>  <AC50, µM>
66.6

$$$$
>  <molecule>
O=C(O)c1cc(I)cc(I)c1I [2,3,5-Triiodobenzoic acid]

>  <AC50, µM>
57.3

$$$$

Give its AC50 value. Item: CCCCCCCCCC(C)C=O (centres unmarked) [2-Methylundecanal] 74.2

Give its AC50 value. Item: ClC(Cl)(Cl)c1ccc(C(Cl)(Cl)Cl)cc1 [1,4-Bis(trichloromethyl)benzene] 5.66

Give its AC50 value. Item: CC(=O)[C@H]1CC[C@H]2[C@@H]3CCC4=CC(=O)CC[C@]4(C)[C@H]3CC[C@]12C [Progesterone] 29.9
